- system tested: PDE4D7 (Homo sapiens (Human), UniProt Q08499)
- Sequence (Q08499 other isoform, or with tags, fused parts or gaps): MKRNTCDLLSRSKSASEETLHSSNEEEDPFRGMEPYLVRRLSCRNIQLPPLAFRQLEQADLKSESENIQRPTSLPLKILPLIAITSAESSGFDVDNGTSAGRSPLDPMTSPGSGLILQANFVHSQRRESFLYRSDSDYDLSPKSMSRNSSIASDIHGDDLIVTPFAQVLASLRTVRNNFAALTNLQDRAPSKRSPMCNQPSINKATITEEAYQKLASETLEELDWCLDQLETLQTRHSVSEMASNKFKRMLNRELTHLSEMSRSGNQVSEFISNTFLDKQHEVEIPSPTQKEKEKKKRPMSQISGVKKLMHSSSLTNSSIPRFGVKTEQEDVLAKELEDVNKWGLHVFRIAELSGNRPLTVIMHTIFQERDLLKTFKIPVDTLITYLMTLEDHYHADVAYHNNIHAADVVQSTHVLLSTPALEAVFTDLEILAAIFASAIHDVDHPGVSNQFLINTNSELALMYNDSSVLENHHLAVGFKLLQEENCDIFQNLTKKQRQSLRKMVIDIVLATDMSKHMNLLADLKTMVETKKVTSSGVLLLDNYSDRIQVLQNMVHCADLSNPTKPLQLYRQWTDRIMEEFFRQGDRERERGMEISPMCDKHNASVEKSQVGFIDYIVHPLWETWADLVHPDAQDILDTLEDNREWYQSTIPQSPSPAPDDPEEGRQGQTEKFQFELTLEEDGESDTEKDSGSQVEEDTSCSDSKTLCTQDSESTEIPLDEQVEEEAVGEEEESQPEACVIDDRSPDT
- run parameters: read-out: PDE4D7 IC50; PDE4D7 without asterisk
Counter-ions that a name gives are not always drawn.
metric name: IC50

>>> df
                                    molecule  metric_name  data_value
 0  OCCCc1cccc(-c2cc(-c3cccc(Cl)c3)nc3c2CCC3)c1 [Example 266, hydrochloride]         IC50   > 1000 nM
 1  NC(=O)Cc1ccc(Nc2nc(C3CCCC3)nc3c2SCCC3)cc1         IC50   < 1000 nM
 2  OCCc1ccc(Nc2cc(-c3cc(Cl)ccc3Cl)nc3c2CCC3)cc1 [Example 156, hydrochloride]         IC50   > 1000 nM
 3  OCCc1ccc(Cc2cc(-c3cccc(Cl)c3)nc(C(F)(F)F)c2)cc1         IC50   > 1000 nM
 4  NC(C(=O)O)c1ccc(Nc2nc(-c3ccc(Cl)s3)nc3c2CCC3)cc1 (stereo not shown) [Example 12, hydrochloride]         IC50   > 1000 nM
 5  NC(=O)Cc1ccc(Nc2cc(S(=O)(=O)C3CCCC3)nc3c2CCC3)cc1         IC50   > 1000 nM
 6  CCc1cc(Cc2ccc(CC(=O)OC)cc2)nc(C2CCCC2)n1         IC50   > 1000 nM
 7  OCCc1ccc(Nc2cc(C3CCCC3)nc3c2CCC3)cc1 [Example 249, hydrochloride]         IC50   > 1000 nM
 8  NC(=O)Cc1ccc(Nc2nc(-c3cccc(Cl)c3)nc3c2S(=O)(=O)CC3)cc1         IC50   > 1000 nM
 9  NC(=O)CCCc1ccc(Nc2cc(-c3cccc(Cl)c3)nc3c2CCC3)cc1 [Example 130, hydrochloride]         IC50   > 1000 nM
10  O=C(O)Cc1ccc(Nc2nc(-c3ccc(Cl)cc3)nc(C3CC3)n2)cc1         IC50   > 1000 nM
11  O=C(O)c1ccc(Nc2nc(-c3ccc(Cl)cc3)nc(C3CC3)n2)cc1         IC50   < 1000 nM
12  NC(=O)Cc1ccc(Nc2cc(-c3ccc(Cl)s3)nc3c2CCC3)cc1 [Example 245, hydrochloride]         IC50   > 1000 nM

The measurements presented in this section are drawn from patent US11401286B2.
